Each recorded value in this set is attributed to ChEMBL document CHEMBL4680082.

Below are EC50 values measured for 5-hydroxytryptamine receptor 2B (Homo sapiens).
// return numeric value only (unit: nM, not printed)

Record excerpt, results attached:
COc1ccc2occc2c1[C@H]1C[C@@H]1CN = 111
C=C(F)COc1ccc2occc2c1[C@H]1C[C@@H]1CN = 128
NC[C@@H]1C[C@H]1c1c(OCCF)ccc2occc12 = 448
C=CCOc1ccc2c(c1[C@H]1C[C@@H]1CN)CCO2 = 258
CCCOc1ccc2c(c1[C@H]1C[C@@H]1CN)CCO2 = 258
CCOc1ccc2occc2c1[C@H]1C[C@@H]1CN = 84

Here NC[C@H]1C[C@@H]1c1c(OCC2CC2)ccc2c1CCO2 was tested on 5-hydroxytryptamine receptor 2B (Homo sapiens), and its EC50 came to 269

Here CCc1cc2c([C@H]3C[C@@H]3CN)c(OCCF)ccc2o1 was tested on 5-hydroxytryptamine receptor 2B (Homo sapiens), and its EC50 came to 550

Here C=CCOc1ccc2oc(CC)cc2c1[C@H]1C[C@@H]1CN was tested on 5-hydroxytryptamine receptor 2B (Homo sapiens), and its EC50 came to 433

###

biological target: 5-hydroxytryptamine receptor 2C (Homo sapiens, UniProt P28335); assay: Agonist activity at human 5-HT2C INI receptor expressed in human Flp-In-293 cells assessed as induction of calcium flux incubated for 1 hr by Fluo-4 direct dye based FLIPR assay; format: functional, cell-based
Sequence (P28335 whole entry): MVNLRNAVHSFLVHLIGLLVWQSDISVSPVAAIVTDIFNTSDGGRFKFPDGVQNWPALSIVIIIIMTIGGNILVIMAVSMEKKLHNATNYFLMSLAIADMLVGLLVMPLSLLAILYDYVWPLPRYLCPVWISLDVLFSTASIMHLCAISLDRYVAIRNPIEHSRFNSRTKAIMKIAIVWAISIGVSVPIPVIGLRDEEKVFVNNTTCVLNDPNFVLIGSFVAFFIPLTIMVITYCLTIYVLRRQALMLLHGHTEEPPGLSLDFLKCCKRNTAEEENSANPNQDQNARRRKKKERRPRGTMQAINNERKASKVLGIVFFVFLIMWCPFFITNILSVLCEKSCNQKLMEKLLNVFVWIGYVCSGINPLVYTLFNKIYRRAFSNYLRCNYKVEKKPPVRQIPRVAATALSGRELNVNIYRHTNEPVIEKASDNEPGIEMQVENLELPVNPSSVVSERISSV
Each record here notes measured log10 EC50.
Scale type: logarithmic (base 10). Underlying EC50 unit: nM.

Record excerpt, results attached:
CCc1cc2c([C@H]3C[C@@H]3CN)c(OCCF)ccc2o1 = 1.34
C[C@H](N)Cn1ccc2cc(F)c(Cl)cc21 = 0.34
NC[C@H]1C[C@@H]1c1c(OCCF)ccc2c1CCO2 = 1.61
C=CCOc1ccc2c(c1[C@H]1C[C@@H]1CN)CCO2 = 1.41

Lab note: measured log10 EC50 of C=CCOc1ccc2occc2c1[C@H]1C[C@@H]1CN was 0.94

Lab note: measured log10 EC50 of C=CCOc1ccc2oc(CC)cc2c1[C@H]1C[C@@H]1CN was 1.40

Lab note: measured log10 EC50 of NC[C@H]1C[C@@H]1c1c(OCCF)ccc2occc12 was 0.08

###

target: 5-hydroxytryptamine receptor 2B (Homo sapiens); assay: Agonist activity at human 5-HT2B receptor expressed in human Flp-In-293 cells assessed as induction of calcium flux incubated for 1 hr by Fluo-4 direct dye based FLIPR assay relative to 5-HT; assay type: functional, cell-based
Sequence (P41595 whole entry): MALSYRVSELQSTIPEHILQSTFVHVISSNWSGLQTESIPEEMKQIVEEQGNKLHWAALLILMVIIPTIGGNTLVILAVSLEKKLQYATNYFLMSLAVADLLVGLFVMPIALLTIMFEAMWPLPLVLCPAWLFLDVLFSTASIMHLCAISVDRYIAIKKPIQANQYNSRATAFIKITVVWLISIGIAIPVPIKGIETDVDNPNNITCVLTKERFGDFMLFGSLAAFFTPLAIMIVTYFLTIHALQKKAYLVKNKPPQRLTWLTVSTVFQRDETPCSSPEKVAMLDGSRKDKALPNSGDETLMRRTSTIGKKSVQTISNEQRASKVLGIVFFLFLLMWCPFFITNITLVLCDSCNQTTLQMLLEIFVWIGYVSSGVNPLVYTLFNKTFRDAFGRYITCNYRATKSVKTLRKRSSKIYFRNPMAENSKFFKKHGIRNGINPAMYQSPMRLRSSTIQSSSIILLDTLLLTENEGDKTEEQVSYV
Each record here notes measured Emax.
// return numeric value only (unit: %, not printed)

Record excerpt, results attached:
CC(C)Oc1ccc2occc2c1[C@@H]1C[C@H]1CN = 25
C=C(F)COc1ccc2occc2c1[C@H]1C[C@@H]1CN = 38
NC[C@@H]1C[C@H]1c1c(OCC2CC2)ccc2occc12 = 27
CC(C)Oc1ccc2occc2c1[C@H]1C[C@@H]1CN = 39
NC[C@H]1C[C@@H]1c1c(OCC2CC2)ccc2occc12 = 27
C=C(F)COc1ccc2occc2c1[C@@H]1C[C@H]1CN = 29
CCOc1ccc2c(c1[C@@H]1C[C@H]1CN)CCO2 = 30
C=C(C)COc1ccc2occc2c1[C@@H]1C[C@H]1CN = 33

Now let's try a different one.
Lab note: measured Emax of NC[C@@H]1C[C@H]1c1c(OCCF)ccc2occc12 was 34
